assay: Serum concentration by HPLC in healthy human research participants (phase-1 study); format: in vivo; settings: both sexes, human, serum, oral, 60 mg/day, elderly research participants, 28 days once daily 60 mg; read-out: steady-state serum concentration at 24 h after the last drug intake
reported.property: concentration at 24 h (ng/mL)
Give the value, in units of ng/mL, as a plain number.

Req: Item under review: O=C(C1=C(O)C(c2ccc(F)cc2)N(c2ccc3c(c2)OCO3)C1=O)C1CC1 (stereo not shown) [Compound-1F] . Reported concentration at 24 h?
Resp: 1540

###

test: Serum concentration by HPLC in healthy human research participants (phase-1 study); type: in vivo; settings: both sexes, human, serum, oral, 60 mg/day, healthy humans, repeated dosing 60 mg/day; read-out: serum concentration at 24 h after intake of the last dose
reported.property: concentration at 24 h (ng/mL)
Give the value, in units of ng/mL, as a plain number.

Req: Item under review: O=C(C1=C(O)C(c2ccc(F)cc2)N(c2ccc3c(c2)OCO3)C1=O)C1CC1 (stereo not shown) . Reported concentration at 24 h?
Resp: 1470
